Below, each entry is listed with its recorded IC50 (read off the curve).
- Target System: T1, CTLA-4-hFc (immunogen A; hFc-labeled CTLA-4 extracellular domain protein) (human, UniProt P16410 36-161)
- T1 construct: range 36-161; Made in HEK293 cells, purified on protein A; also called CLTA-4-hFc; CTLA-4 protein; not shown: human IgG Fc fragment (hFc) of the pCpC vector
- T1 sequence (looked up): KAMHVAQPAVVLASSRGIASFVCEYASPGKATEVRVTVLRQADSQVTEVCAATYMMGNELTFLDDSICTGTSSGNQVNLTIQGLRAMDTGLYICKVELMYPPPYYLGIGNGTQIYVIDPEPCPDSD
- Test Protocol: competition ELISA: CTLA-4-hFc coated, antibody titrated, blocked ligand biotin-labeled B7.2-hFc, HRP-avidin, A450, inhibition (%)
Measurement Label: IC50 (read off the curve)

[
  {
    "Binder": "40C4C6 (chimeric antibody purified from hybridoma supernatant) (antibody, V domains shown, also called mAb09; mAb009) VH: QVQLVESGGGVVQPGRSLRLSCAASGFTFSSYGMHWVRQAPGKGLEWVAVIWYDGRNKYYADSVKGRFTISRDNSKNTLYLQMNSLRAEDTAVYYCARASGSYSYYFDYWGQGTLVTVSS VL: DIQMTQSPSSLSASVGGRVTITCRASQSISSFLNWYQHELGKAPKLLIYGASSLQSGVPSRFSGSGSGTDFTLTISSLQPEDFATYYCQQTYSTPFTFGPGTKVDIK",
    "Experimental Value": "~500 pM"
  },
  {
    "Binder": "31C12F3 (chimeric antibody purified from hybridoma supernatant) (antibody, V domains shown, also called mAb010) VH: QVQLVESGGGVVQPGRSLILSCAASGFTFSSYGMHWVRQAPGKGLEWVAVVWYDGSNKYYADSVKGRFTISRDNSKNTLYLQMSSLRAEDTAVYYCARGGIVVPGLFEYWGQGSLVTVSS VL: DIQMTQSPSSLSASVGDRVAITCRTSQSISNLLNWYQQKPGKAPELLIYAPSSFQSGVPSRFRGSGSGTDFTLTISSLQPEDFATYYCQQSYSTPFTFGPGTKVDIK",
    "Experimental Value": "~500 pM"
  },
  {
    "Binder": "92C8B6 (chimeric antibody purified from hybridoma supernatant) (antibody, V domains shown, also called mAb42; mAb042) VH: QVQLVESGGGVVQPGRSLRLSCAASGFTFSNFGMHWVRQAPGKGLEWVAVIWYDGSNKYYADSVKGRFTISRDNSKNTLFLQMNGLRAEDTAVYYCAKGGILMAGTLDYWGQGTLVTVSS VL: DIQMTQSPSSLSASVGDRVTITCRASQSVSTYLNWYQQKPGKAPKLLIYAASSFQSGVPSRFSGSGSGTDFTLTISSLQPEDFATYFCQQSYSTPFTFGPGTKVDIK",
    "Experimental Value": "~200 pM"
  }
]
